system: Canis familiaris; assay: The compound was evaluated the change in blood pressure at 10 mg/kg active dose; type: functional, Canis lupus familiaris
For each of the compounds below, state its BP.
Please reply with the bare figure in % and do not write the unit itself.

Q: Tell me reported BP for CC(C)NCC(O)c1ccc(NS(C)(=O)=O)cc1 (centres undefined) , tested with Canis familiaris.
Ans: 8

Q: Could you do the same for CC1=NCCN1CC(O)c1ccc(NS(C)(=O)=O)cc1.Cl (centres undefined) , please?
Ans: 2

Q: Could you do the same for "CCCCCCC[N+](CC)(CC)CCCCc1ccc(Cl)cc1" , please?
Ans: -4

Q: Could you do the same for C[n+]1ccn(CC(O)c2ccc(NS(C)(=O)=O)cc2)c1.[Cl-] (centres undefined) , please?
Ans: 5

The measurements presented in this section are drawn from ChEMBL document CHEMBL1123572.
